Target: TBK1 (Homo sapiens (Human))
Sequence (Q9UHD2 whole entry): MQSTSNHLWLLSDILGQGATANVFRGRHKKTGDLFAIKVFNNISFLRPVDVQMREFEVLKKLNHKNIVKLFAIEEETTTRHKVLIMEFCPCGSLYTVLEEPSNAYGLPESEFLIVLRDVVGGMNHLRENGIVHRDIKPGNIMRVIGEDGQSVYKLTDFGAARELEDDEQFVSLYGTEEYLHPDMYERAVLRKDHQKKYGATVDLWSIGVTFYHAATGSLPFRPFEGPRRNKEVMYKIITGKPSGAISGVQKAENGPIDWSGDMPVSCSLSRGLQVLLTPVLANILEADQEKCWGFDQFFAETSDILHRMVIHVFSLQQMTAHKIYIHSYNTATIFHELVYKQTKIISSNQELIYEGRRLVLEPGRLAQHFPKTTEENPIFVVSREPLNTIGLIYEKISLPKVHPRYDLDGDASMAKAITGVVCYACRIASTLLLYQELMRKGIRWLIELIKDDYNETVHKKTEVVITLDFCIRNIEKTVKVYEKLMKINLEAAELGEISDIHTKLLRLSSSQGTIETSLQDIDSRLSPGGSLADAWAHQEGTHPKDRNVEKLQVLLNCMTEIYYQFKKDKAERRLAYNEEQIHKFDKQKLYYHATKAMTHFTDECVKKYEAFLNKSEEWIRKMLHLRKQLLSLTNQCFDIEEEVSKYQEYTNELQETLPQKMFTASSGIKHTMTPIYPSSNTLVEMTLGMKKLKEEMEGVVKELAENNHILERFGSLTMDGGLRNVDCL
Test: In vitro TBK1 degradation assay, Panc02.13 cells (compounds 3-33), immunoblot
Format: cell-based
Conditions: TBK1 degradation, Panc02.13 cells, 16 h; mean of ≥ 2 determinations
Method: In vitro degradation assay protocol for compounds 3-33: Panc02.13 cells were purchased from ATCC and cultured in RPMI-1640 (Gibco), supplemented with 15% FBS (ATCC) and 10 Units/mL human recombinant insulin (Gibco). PROTAC treatments were carried out in 12-well plates for 16 h. TLR3 agonist Poly I:C (Invivogen; tlr1-pic) was added for the final 3 h. […]
recorded.endpoint: Dmax (maximal degradation observed) (%)
Write down the numeric answer in % and omit the unit.

// lookup Dmax (maximal degradation observed) for Cc1ncsc1-c1ccc(CNC(=O)[C@@H]2C[C@@H](O)CN2C(=O)CNC(=O)COCCCOCCCCOCCCOc2ccc(Nc3ncc(Br)c(NCCCN(C)C(=O)C4CCC4)n3)cc2)cc1 [Compound 29] 0

Which Dmax (maximal degradation observed) is reported for this molecule? Cc1ncsc1-c1ccc(CNC(=O)[C@@H]2C[C@@H](O)CN2C(=O)[C@@H](NC(=O)CCOCCCOCCCOCCCOCCCOc2ccc(Nc3ncc(Br)c(NCCCN(C)C(=O)C4CCC4)n3)cc2)C(C)(C)C)cc1 [Compound 15] 96

Can you share its Dmax (maximal degradation observed)? I mean this molecule: Cc1ncsc1-c1ccc(CNC(=O)[C@@H]2C[C@@H](O)CN2C(=O)[C@@H](NC(=O)COCCCOCCCCOCCCOc2ccc(Nc3ncc(C4CCC4)c(NCCCN(C)C(=O)C4CCC4)n3)cc2)C(C)(C)C)cc1 [Compound 22] 70
